Hi there, I'd appreciate the recorded shrunken log2 fold change for every entry that follows.
- System: Escherichia coli TOP10;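 also: peptides expressed intracellularly from a pBAD plasmid library in pooled LB shake-flask culture, induced with 0.3% L-arabinose, DNA abundance read by NGS, three biological replicates, DESeq2 with apeglm shrinkage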
- assay: shrunken log2 fold change of peptide-encoding DNA abundance (4.5 h post-induction vs induction); higher = less antimicrobial activity (less host growth inhibition)
- assay context: time post-induction: 4.5 h; library: site-saturation at positions 5, 18, 19, 20
In your answer, state the number alone without any accompanying words.

Reported shrunken log2 fold change for RRIRTRPPRLPRPRPRPGGDPRP was 0.46

// sample RRIRMRPPRLPRPRPRPFVTPRP , its shrunken log2 fold change was -0.269

In plain terms, RRIRWRPPRLPRPRPRPNGSPRP has a documented shrunken log2 fold change of 0.0647

Just so you know, measured shrunken log2 fold change for RRIRVRPPRLPRPRPRPDEAPRP came out at -0.0574

# shrunken log2 fold change (sequence: RRIRFRPPRLPRPRPRPLDVPRP ) is -0.153

Input RRIRLRPPRLPRPRPRPFTLPRP . Output shrunken log2 fold change: -0.192

Per the record, RRIRLRPPRLPRPRPRPVEYPRP has shrunken log2 fold change of -0.294

Reported shrunken log2 fold change ( RRIRNRPPRLPRPRPRPWKHPRP ) = -0.347

shrunken log2 fold change reported for this sequence RRIRYRPPRLPRPRPRPGFLPRP : -0.454

Form field shrunken log2 fold change, entry RRIRRRPPRLPRPRPRPLQAPRP : 0.98

Just so you know, measured shrunken log2 fold change for RRIRYRPPRLPRPRPRPQDQPRP came out at -0.21

According to the records, this sequence RRIRNRPPRLPRPRPRPQTAPRP displays shrunken log2 fold change of -0.0947

The sequence identified as RRIRTRPPRLPRPRPRPFDRPRP registered its shrunken log2 fold change at 0.0237

// shrunken log2 fold change value for RRIRKRPPRLPRPRPRPRNTPRP : -0.0381

response.value for RRIRRRPPRLPRPRPRPIVVPRP (field: shrunken log2 fold change) = 0.115

For reference, reported shrunken log2 fold change for RRIRDRPPRLPRPRPRPFLVPRP stands at -0.199

Just so you know, measured shrunken log2 fold change for RRIRQRPPRLPRPRPRPLVKPRP came out at -0.166

shrunken log2 fold change for RRIRRRPPRLPRPRPRPNAPPRP is 0.675

Per the record, RRIRRRPPRLPRPRPRPFLAPRP has shrunken log2 fold change of 0.925

sequence RRIRTRPPRLPRPRPRPHGFPRP , shrunken log2 fold change observed: -0.0139

Data point: RRIRNRPPRLPRPRPRPTLAPRP ; shrunken log2 fold change = 0.556

Reported shrunken log2 fold change for RRIRQRPPRLPRPRPRPLHWPRP was 0.0127

Data point: RRIRARPPRLPRPRPRPIMDPRP ; shrunken log2 fold change = -0.0229

So, RRIRQRPPRLPRPRPRPQHWPRP ? Its shrunken log2 fold change was 0.0488

Record RRIRYRPPRLPRPRPRPQWYPRP , field shrunken log2 fold change: -0.118

shrunken log2 fold change for RRIRTRPPRLPRPRPRPLCWPRP is 0.0326

The value of shrunken log2 fold change measured for the sequence RRIRRRPPRLPRPRPRPDLKPRP turned out to be 0.162

Query RRIRARPPRLPRPRPRPDHDPRP yields shrunken log2 fold change of 0.592

The sequence identified as RRIRPRPPRLPRPRPRPWWDPRP registered its shrunken log2 fold change at -0.204

Lab note: measured shrunken log2 fold change of RRIRYRPPRLPRPRPRPSYEPRP was -0.629

Given item RRIRDRPPRLPRPRPRPKQDPRP , the value recorded as its shrunken log2 fold change is 0.172

The sequence identified as RRIRIRPPRLPRPRPRPLHTPRP registered its shrunken log2 fold change at -0.456

Reported shrunken log2 fold change ( RRIRARPPRLPRPRPRPFDGPRP ) = -0.22

Summary for this sequence, RRIRARPPRLPRPRPRPFERPRP : shrunken log2 fold change is -0.0075

The sequence identified as RRIRPRPPRLPRPRPRPTISPRP registered its shrunken log2 fold change at -0.218

In plain terms, RRIRMRPPRLPRPRPRPCFMPRP has a documented shrunken log2 fold change of -0.136

For reference, reported shrunken log2 fold change for RRIRGRPPRLPRPRPRPINYPRP stands at 0.000824

For this sequence ( RRIRSRPPRLPRPRPRPFSRPRP ), measured shrunken log2 fold change is -0.347

Quick note, shrunken log2 fold change for RRIRWRPPRLPRPRPRPRLRPRP landed at 0.461

RRIRPRPPRLPRPRPRPHTNPRP yielded shrunken log2 fold change of 0.401

Data point: RRIRIRPPRLPRPRPRPPGWPRP ; shrunken log2 fold change = 0.527

Sure, the documented shrunken log2 fold change for RRIRKRPPRLPRPRPRPGHYPRP is 0.0236

Value of measured shrunken log2 fold change for the entry RRIRARPPRLPRPRPRPFVEPRP : 0.108

shrunken log2 fold change reading for RRIRWRPPRLPRPRPRPSIHPRP : -0.319

// RRIRIRPPRLPRPRPRPGHLPRP : shrunken log2 fold change value = -0.101

The reported shrunken log2 fold change of the sequence RRIRDRPPRLPRPRPRPDNGPRP was -0.223

GET /value?item= RRIRTRPPRLPRPRPRPVEHPRP &field=shrunken log2 fold change returns 0.0387

RRIRIRPPRLPRPRPRPRRSPRP yielded shrunken log2 fold change of 0.347

Field shrunken log2 fold change (entry RRIRFRPPRLPRPRPRPQMVPRP ) reads -0.0194

GET /value?item= RRIRQRPPRLPRPRPRPAWDPRP &field=shrunken log2 fold change returns 1.54

Per the record, RRIRVRPPRLPRPRPRPPGPPRP has shrunken log2 fold change of 0.533

Value of shrunken log2 fold change reported for the sequence RRIRLRPPRLPRPRPRPYCTPRP is 1.26

The sequence identified as RRIRERPPRLPRPRPRPTNPPRP registered its shrunken log2 fold change at -0.182

Quick note, shrunken log2 fold change for RRIRPRPPRLPRPRPRPYFNPRP landed at -0.619

shrunken log2 fold change for RRIRSRPPRLPRPRPRPMTGPRP is 0.00381

Noted for RRIRGRPPRLPRPRPRPMRGPRP : its shrunken log2 fold change reads 1.09

The reported value for RRIRPRPPRLPRPRPRPFSEPRP in terms of shrunken log2 fold change is -0.436

Input RRIRIRPPRLPRPRPRPILSPRP . Output shrunken log2 fold change: -0.421

# shrunken log2 fold change of RRIRMRPPRLPRPRPRPILCPRP = 0.0427

So, RRIRARPPRLPRPRPRPWNFPRP ? Its shrunken log2 fold change was -0.123

Record summary for RRIRVRPPRLPRPRPRPGMVPRP : reported shrunken log2 fold change = 0.0182

shrunken log2 fold change recorded for this sequence, RRIRSRPPRLPRPRPRPSTWPRP , is -0.301

Entry RRIRQRPPRLPRPRPRPHCHPRP ; shrunken log2 fold change = -0.164
